System: barnyardgrass (Echinochloa crus-galli)
assay.remarks: Test A preemergence, visual plant response rating
Type: in vivo
test.parameters: 500 g ai/ha Preemergence; approx. 10 days
Field 'label' (enum: true (1) / false (0)). Set to true (1) when Barnyardgrass plant response rating (0 to 100 scale) is strictly under 20; else false (0).

Recorded results for 2 compounds are shown here.
compound	study.system	class.label
CON=C(c1c(O)c(C)nn(C)c1=O)c1cccc2sccc12	barnyardgrass (Echinochloa crus-galli)	false (0)
CO/N=C(\c1cccc(C)c1C)c1c(O)c(C)nn(C)c1=O	barnyardgrass (Echinochloa crus-galli)	true (1)

Hello, is Barnyardgrass plant response rating (0 to 100 scale) of the following compound strictly smaller than 20? CON=C(c1ccc(F)cc1C)c1c(O)c(C)nn(C)c1=O
true (1)

In the record for CO/N=C(\c1c(O)c(C)nn(C)c1=O)c1cccc2ccccc12 , is Barnyardgrass plant response rating (0 to 100 scale) less than 20?
false (0)

Hi there! Is Barnyardgrass plant response rating (0 to 100 scale) for CCO/N=C(\c1c(O)c(Cl)nn(C)c1=O)c1cccc2ccccc12 below 20, do you know?
false (0)

Given the entry CON=C(c1ccccc1Cl)c1c(O)c(C)nn(C)c1=O (stereo in doubt) , would its reported Barnyardgrass plant response rating (0 to 100 scale) be below 20?
false (0)

Below 20 on Barnyardgrass plant response rating (0 to 100 scale)? Entry CON=C(c1c(O)c(C)nn(C)c1=O)c1ccc(OC)c2ccccc12
false (0)
